Origin of the recorded values: paper PMC6680510

Test: Solubility in AlphaMEM + 5% FBS, pH 7.4
Conditions: culture medium (AlphaMEM + 5% FBS), pH 7.4, plasma or biological fluid, kinetic from dmso stock
I'd be grateful if you could share measured solubility for these entries.

These solved cases illustrate the format of a correct answer.
| compound | reported measurement |
| --- | --- |
| Cc1ccc2c(c1)[n+]([O-])c(CCC(=O)O)n[n+]2[O-] [Compound 6a] | > 960 µM |
| Cc1ccc2c(c1)[n+]([O-])nc(CCC(=O)O)[n+]2[O-] [Compound 5a] | > 980 µM |

Then this compound:
Req: Consider the compound COC(=O)CCc1n[n+]([O-])c2cc(C)ccc2[n+]1[O-] [Compound 5b] . State its measured solubility.
Resp: > 950 µM
